Molecular target: EGLN3
Assay: cell-based or functional assay
Where no end group is shown, it is not given here.
Measured Activity (%)* accompanies every entry in the list below.
RECORDED_METRIC: Activity (%)*

{"BINDER": "DTDLDFEALAPYIPADDDFQ [DTDLDFEALApYIPADDDFQ]", "READOUT_NUMBER": 142}
{"BINDER": "DTDLDVEAFAPYIPADDDFQ (not fully specified; printed as DTDLDVEAFApYIPADDDFQ) [DTDLDVEAFApYIPADDDFQ]", "READOUT_NUMBER": 44.2}
{"BINDER": "DTDLDNEALAPYIPADDDFQ (not fully specified; printed as DTDLDNEALApYIPADDDFQ) [DTDLDNEALApYIPADDDFQ]", "READOUT_NUMBER": 57.6}
{"BINDER": "DTDLDIEANAPYIPADDDFQ [DTDLDIEANApYIPADDDFQ]", "READOUT_NUMBER": 30.4}
{"BINDER": "DTDLDLEAKAPYIPADDDFQ [DTDLDLEAKApYIPADDDFQ]", "READOUT_NUMBER": 44.1}
{"BINDER": "DTDLDTEAFAPYIPADDDFQ (not fully specified; printed as DTDLDTEAFApYIPADDDFQ) [DTDLDTEAFApYIPADDDFQ]", "READOUT_NUMBER": 24.1}
